Kindly find below pIC50 information for human DGAT1 (Homo sapiens, UniProt O75907) taken from the literature.
Just the number, please; pIC50 means minus log10 of the concentration in mol/L.

Before answering, review these 2 worked examples.
1) CN1C(=O)[C@H](NC(=O)C2(NC(=O)c3ccccc3)CC2)CN(c2ccc(OC(F)(F)F)cc2)c2ccc(F)cc21 : 6.72
2) O=C(O)C1(COC2CCN(c3ccc(-c4nc5ccccc5[nH]4)cn3)CC2)CCC1 : 7.30

Field: next molecule
input: I am curious: what pIC50 value has been reported for O=C(Nc1ccc([C@H]2CC[C@H](C(=O)O)CC2)cc1F)c1nnc(Nc2ccc(OC(F)(F)F)cc2)o1 ?
output: 7.96

----------
Kindly find below IC50 information for human DGAT1 (Homo sapiens) taken from the literature.
Give the quantity in nM, number only.

Before answering, review these 8 worked examples.
1. O=C(Nc1ccc(N2CCN(C(=O)Nc3c(Cl)cccc3Cl)CC2)cc1)c1ccccc1N1CCOCC1 : 380
2. O=C(CN1CCOCC1)Nc1ccc(C2CCN(C(=O)Nc3c(Cl)cccc3Cl)CC2)cc1 : 1200
3. CCOC(=O)[C@H]1CC[C@@H](OC2CCN(c3ccc(-c4nc5cc(F)ccc5[nH]4)cn3)CC2)CC1 : 17
4. CN1C(=O)[C@H](NC(=O)C(C)(C)NC(=O)N2CCCCC2)CN(c2ccc(OC(F)(F)F)cc2)c2ccc(F)cc21 : 91.1
5. C[C@]1(C(=O)O)C[C@@H](OC2CCN(c3ccc(-c4nc5cc(C(F)(F)F)ccc5[nH]4)cn3)CC2)C1 : 6
6. CN1CCN(C(=O)c2cc(Cl)c(N/C(=N/C#N)N3CCN(c4ccc(NC(=O)c5cccc(N6CCCC6)c5)cc4)CC3)c(Cl)c2)CC1 : 5.25
7. O=C(Nc1ccc([C@H]2CC[C@H](C(=O)O)CC2)cc1F)c1nnc(Nc2cccc(Cl)c2)o1 : 12
8. COC(=O)c1cc(Cl)c(NC(=O)N2CCC(c3ccc(NC(=O)CCCc4ccccc4)cc3)CC2)c(Cl)c1 : 107

input: I am curious: what IC50 value has been reported for CCCc1ccccc1NC(=O)N1CCN(c2ccc(NC(=O)CCCc3ccccc3)cc2)CC1 ?
output: 1660

input: // next record O=C(NCCNC(=O)c1ccc(F)c(C(F)(F)F)c1)c1ccc(O[C@H]2CC[C@@H](C(=O)O)CC2)cc1
output: 9.9

----------
Kindly find below pIC50 information for human DGAT1 (Homo sapiens, UniProt O75907) taken from the literature.
Just the number, please; pIC50 means minus log10 of the concentration in mol/L.

1) CN(C)CC(=O)Nc1ccc(C2CCN(C(=O)Nc3c(Cl)cccc3Cl)CC2)cc1 : 5.63
2) Cc1cccc(C(=O)NN(C(=O)/C=C/c2cn(C(=O)OC(C)(C)C)c3ccccc23)C(C)C)c1 : 5.54
3) Cc1cc(N2CCC(O[C@H]3CC[C@@H](CC(=O)O)CC3)CC2)ncc1-c1nc2ccccc2[nH]1 : 6.83

Field: next compound
input: // fetch human DGAT1 (Homo sapiens, UniProt O75907) pIC50 for O=C(O)CC1(CC(F)(F)F)CCc2cc(-c3cnc(NC(=O)Nc4ccc(F)c(F)c4)cn3)ccc2C1=O (stereo not shown)
output: 8.74

----------
Kindly find below IC50 information for human DGAT1 (Homo sapiens, UniProt O75907) taken from the literature.

Before answering, review these 5 worked examples.
1. Cc1ccccc1NC(=O)c1ccc(-c2ccc(NC(=O)c3oc(N4CCCC(C)C4)nc3C(F)(F)F)cc2)nc1 (stereo not shown) : 11 to 100 nM
2. O=C(Nc1ccc(N2CCN(C(=O)Nc3c(Cl)cccc3Cl)CC2)cc1)c1ccccc1-c1ccco1 : 24.5 nM
3. Cc1cc(C)cc(N2CCN(CC(=O)Nc3ccc(C4CCN(C(=O)Nc5c(Cl)cccc5Cl)CC4)cc3)CC2)c1 : 170 nM
4. Cc1nnnn1-c1cccc(C(=O)Nc2ccc(N3CCN(C(=O)Nc4c(Cl)cccc4Cl)CC3)cc2)c1 : 269 nM
5. CC1(C)Oc2ncnc(N)c2N=C1c1ccc([C@H]2CC[C@H](CN3CCN(C(=O)CO)CC3)CC2)cc1 : 10 to 100 nM

input: I am curious: what IC50 value has been reported for Clc1cccc(Cl)c1-c1nc2ccc(-c3nc(-c4ccccc4)c(-c4ccccc4)o3)cc2[nH]1 ?
output: > 10000 nM

input: // next record Cc1nc(N)c2c(n1)OC(C)(C)C(c1ccc([C@H]3CC[C@H](CC(=O)O)CC3)cc1)C2 (stereo partly shown)
output: 10 to 100 nM

input: // next record CC(C)(C)OC(=O)NCC(=O)Nc1ccc(C2CCN(C(=O)Nc3c(Cl)cccc3Cl)CC2)cc1
output: 115 nM

input: // next record CC(C)N(NC(=O)c1ccccc1)C(=O)/C=C/c1c[nH]c2ccccc12
output: > 100000 nM

input: // next record CCCc1ccc(C2=Nc3c(N)ncnc3OC2)cc1
output: > 100 nM

input: // next record CCCCc1ccc2nc(-c3ccc(N4CCC(O[C@H]5CC[C@@H](CC(=O)O)CC5)CC4)nc3)[nH]c2c1
output: 4 nM

input: // next record CN(C)c1ccc(NC(=O)Nc2ccc(-c3ncnc4c(-c5ccc(CCC(=O)O)cc5)csc34)cc2)cc1
output: < 1 nM

input: // next record CC1(C)Oc2ncnc(N)c2N=C1c1ccc([C@H]2CC[C@H](Cc3nc4cc(F)ccc4[nH]3)CC2)cc1
output: 10 to 100 nM

----------
Kindly find below pIC50 information for human DGAT1 (Homo sapiens, UniProt O75907) taken from the literature.
Just the number, please; pIC50 means minus log10 of the concentration in mol/L.

Before answering, review these 3 worked examples.
1. CC(C)(O)Cn1ccc2cc(N3CCOc4ncnc(N)c4C3=O)cc(C3CC3)c21 : 8.12
2. CC(C)(NS(=O)(=O)c1ccc(F)cc1)C(=O)Nc1nc(-c2ccccc2)c(Cc2ccccc2)s1 : 6.62
3. Cc1cc(Cc2nc(=O)o[nH]2)ccc1-c1ccc(-c2nc(C(N)=O)c(C)nc2C)cc1 : 7.74

input: I am curious: what pIC50 value has been reported for CC(C)N(NC(=O)c1ccc(Br)cc1)C(=O)/C=C/c1cn(C(=O)OC(C)(C)C)c2ccccc12 ?
output: 4.69

----------
Kindly find below IC50 information for human DGAT1 (Homo sapiens) taken from the literature.
Give the quantity in µM, number only.

1) O=C(NCCNC(=O)c1ccc(O[C@H]2CC[C@@H](C(=O)O)CC2)c(F)c1F)c1ccc(Cl)s1 : 0.0038
2) COc1ccc(CC(=O)Nc2ccc(C3CCN(C(=O)Nc4c(Cl)cccc4Cl)CC3)cc2)cc1 : 0.0155
3) CC(C)(C)c1ccccc1NC(=O)N1CCN(c2ccc(NC(=O)c3ccccc3-c3ccc(C(F)(F)F)cc3)cc2)CC1 : 7.59
4) O=C(O)c1ccc(OC2CCN(c3ccc(-c4nc5cc(Cl)ccc5[nH]4)cn3)CC2)cc1 : 0.002
5) O=C(O)[C@H]1CC[C@@H](OC2CCN(c3ccc(-c4nc5cc(C(F)(F)F)ccc5[nH]4)cn3)CC2)CC1 : 0.002
6) CN(C)c1ccc(NC(=O)N2CCN(c3ccc(NC(=O)c4ccccc4-c4ccc(C(F)(F)F)cc4)cc3)CC2)cc1 : 3.55

input: I am curious: what IC50 value has been reported for CC(C)(COC1CCN(c2ccc(-c3nc4cc(Cl)ccc4[nH]3)cn2)CC1)C(=O)O ?
output: 0.005

----------
Kindly find below pIC50 information for UniProt O75907 taken from the literature.
Just the number, please; pIC50 means minus log10 of the concentration in mol/L.

1. Clc1cc(Nc2nnc(-c3ccc4nc(-c5c(Cl)cccc5Cl)[nH]c4c3)o2)ccn1 : 7.10
2. O=C(Nc1ccc(N2CCN(C(=O)Nc3c(Cl)cccc3Cl)CC2)cc1)c1cccc(-n2ccnc2)c1 : 7.48
3. O=C(CNCc1ccco1)Nc1ccc(C2CCN(C(=O)Nc3c(Cl)cccc3Cl)CC2)cc1 : 6.41
4. O=C(NS(=O)(=O)c1cccnc1)[C@H]1CC[C@H](OC2CCN(c3ccc(-c4nc5cc(F)ccc5[nH]4)cn3)CC2)CC1 : 7.72
5. O=C(O)[C@@H]1[C@@H]2C[C@@H](OC3CCN(c4ccc(-c5nc6cc(C(F)(F)F)ccc6[nH]5)cn4)CC3)C[C@@H]21 : 8.22
6. Cc1nc(-c2ccc3nc(-c4c(Cl)cccc4Cl)[nH]c3c2)oc1-c1ccc(Cl)cc1 : 5.33

input: I am curious: what pIC50 value has been reported for O=C(CCCc1ccccc1)Nc1ccc(N2CCN(C(=O)Nc3ccc(F)cc3F)CC2)cc1 ?
output: 6.34

input: // next record N#C/N=C(/Nc1c(Cl)cccc1Cl)N1CCN(c2ccc(NC(=O)CCCc3ccccc3)cc2)CC1
output: 8.04

----------
Kindly find below pIC50 information for human DGAT1 (Homo sapiens) taken from the literature.
Just the number, please; pIC50 means minus log10 of the concentration in mol/L.

1. CC(C)N(NC(=O)c1ccncc1)C(=O)/C=C/c1cn(C(=O)OC(C)(C)C)c2ccccc12 : 5.40

input: I am curious: what pIC50 value has been reported for CC1(CC(=O)O)CCc2cc(-c3ccc(NC(=O)Nc4cccc(C(F)(F)F)c4)cn3)ccc2C1=O (centres unmarked) ?
output: 7.85

input: // next record O=C(CC1CCCCC1)Nc1ccc(N2CCN(C(=O)Nc3c(Cl)cccc3Cl)CC2)cc1
output: 8.35

input: // next record CCOCCNC(=O)c1ccc(N2CCN(C(=O)Cc3c(Cl)cccc3Cl)CC2)cc1
output: 5.49

input: // next record COC(=O)c1ccccc1NC(=O)N1CCN(c2ccc(NC(=O)CCCc3ccccc3)cc2)CC1
output: 5.13
